These data points were gathered from PubChem BioAssay (NCATS).

biological target: Cellular tumor antigen p53 (Homo sapiens); test: Primary qHTS for small molecule compounds that upregulate eGFP-tagged delta133p53alpha (in N-terminal) cells. (AID 2060322); details: NCI-H358 eGFP-delta133p53alpha fluorescence, 24 h; hits give high values;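 note: cells pre-induced with doxycycline then dosed without doxycycline; series mostly up to about 56 µM; 0% = DMSO vehicle and 100% = reference activator; nearly all actives have a fitted effect of over 75% in size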
Inconclusive results are not listed.
Provide the reported activation of each item.
One number for each entry, in %.

compound="COc1ccc(C2OCC3C(c4cc(OC)c5c(c4)OCO5)OCC23)cc1OC (stereo unspecified)" experimental_result=-8.4
compound=CC(=O)OC[C@H]1O[C@@H](n2ncc(=O)[nH]c2=O)[C@H](OC(C)=O)[C@@H]1OC(C)=O experimental_result=-7.53
compound=CN1CCN(C2=Nc3ccccc3Nc3ccc(O)cc32)CC1 experimental_result=1.91
compound=COC1=C2C[C@@H](C)C[C@H](OC)[C@@H](O)[C@@H](C)C=C(C)[C@H](OC(N)=O)[C@@H](OC)C=CC=C(C)C(=O)NC(=CC1=O)C2=O experimental_result=-17.1

Below are 7 compounds. Give each one its activation.
1. FC(F)(F)c1ccc(/C=C/c2nc(COc3ccc(CCCCn4ccnn4)cc3)co2)cc1
2. CCCCCCCCCCC[C@@H](C[C@@H]1OC(=O)[C@H]1CCCCCC)OC(=O)[C@H](CC(C)C)NC=O
3. C[C@@H]1O[C@@H](O[C@H]2[C@H](OC(=O)[C@]34CCC(C)(C)C[C@H]3C3=CCC5[C@@]6(C)C[C@H](O)[C@H](O[C@@H]7O[C@H](CO)[C@@H](O[C@H]8OC[C@](O)(CO)[C@H]8O)[C@H](O)[C@H]7O)[C@@](C)(CO)C6[C@H](O)C[C@@]5(C)[C@]3(C)C[C@H]4O)OC[C@H](O)[C@@H]2O)[C@H](O)[C@H](O)[C@H]1O[C@@H]1OC[C@@H](O)[C@H](O[C@@H]2OC[C@](O)(CO)[C@H]2O)[C@H]1O (stereo partly specified)
4. CN(C)CC(=O)N1CCC(c2ccc(NC(=O)c3ncc(C#N)[nH]3)c(C3=CCCCC3)c2)CC1
5. C[N+](C)(C)CC[N+]1(C)Cc2c(Cl)c(Cl)c(Cl)c(Cl)c2C1
6. O=C(c1ccc(OCCCc2cnc[nH]2)cc1)C1CC1
7. CCCCCCCC/C=C\CCCCCCCC(=O)NCCO

Result:
[18.8, 2.82, -17.6, -0.715, -1.69, 6.88, -9.12]

Below are 5 compounds. Give each one its activation.
1. CN(C)C(=O)NC1CCC(CCN2CCN(c3cccc(Cl)c3Cl)CC2)CC1 (stereo unspecified)
2. O=C(CN1C(=O)C2(CCCC2)NC[C@H]1c1cc(F)cc(F)c1)Nc1ccc2c(c1)C[C@@]1(C2)C(=O)Nc2ncccc21
3. O=C(C(c1ccccc1)c1ccccc1)N1CCN(CC(O)COc2cccc3ncccc23)CC1 (stereo unspecified)
4. CN[C@H]1CCc2cc(OC)c(OC)c(OC)c2-c2ccc(OC)c(=O)cc21
5. CCCCCC1Nc2cc(C(F)(F)F)c(S(N)(=O)=O)cc2S(=O)(=O)N1 (stereo unspecified)

Result:
1. -1.91
2. 22.6
3. 4.77
4. 7.86
5. -4.18
